Each recorded value in this set is attributed to ChEMBL document CHEMBL1201862.

tested on: P388/ADR; experiment: cells; assay type: functional; conditions: Mus musculus
Activity calls are given as the source filed them.
Thanks in advance; please answer with one of these: Y (active), N (inactive)

compound	class assignment
CCN(CC)c1c(C)c(C(=O)OC)nn1-c1ccccc1	N
COc1ccc2c(c1[N+](=O)[O-])CC[C@@H]1[C@@H]2CC[C@]2(C)C(=O)CC[C@@H]12	N
COc1cc2c(cc1Oc1c(Oc3c(O)c(OC)cc4c3C(CC(C)C)N(C)CC4)c(OC)cc3c1C(CC(C)C)N(C)CC3)C(CC(C)C)N(C)CC2 (centres undefined)	Y

*Q* Can you look up the reported call for C=C1CC(OC)(C(O)C(=O)N[C@H]2OCO[C@H]3C2O[C@H](C[C@@H](CO)OC)C(C)(C)C3OC)O[C@H](C)[C@@H]1C (some centres undefined) for me?
*A* Y

###

target: Leucine aminopeptidase (Plasmodium falciparum 3D7, UniProt Q8IL11); assay: P. falciparum M17LAP inhibitors, primary screen, biochemical, fluorogenic H-Leu-NHMec substrate, 1536-well (AID 1619); assay type: functional
Sequence (Q8IL11 whole entry): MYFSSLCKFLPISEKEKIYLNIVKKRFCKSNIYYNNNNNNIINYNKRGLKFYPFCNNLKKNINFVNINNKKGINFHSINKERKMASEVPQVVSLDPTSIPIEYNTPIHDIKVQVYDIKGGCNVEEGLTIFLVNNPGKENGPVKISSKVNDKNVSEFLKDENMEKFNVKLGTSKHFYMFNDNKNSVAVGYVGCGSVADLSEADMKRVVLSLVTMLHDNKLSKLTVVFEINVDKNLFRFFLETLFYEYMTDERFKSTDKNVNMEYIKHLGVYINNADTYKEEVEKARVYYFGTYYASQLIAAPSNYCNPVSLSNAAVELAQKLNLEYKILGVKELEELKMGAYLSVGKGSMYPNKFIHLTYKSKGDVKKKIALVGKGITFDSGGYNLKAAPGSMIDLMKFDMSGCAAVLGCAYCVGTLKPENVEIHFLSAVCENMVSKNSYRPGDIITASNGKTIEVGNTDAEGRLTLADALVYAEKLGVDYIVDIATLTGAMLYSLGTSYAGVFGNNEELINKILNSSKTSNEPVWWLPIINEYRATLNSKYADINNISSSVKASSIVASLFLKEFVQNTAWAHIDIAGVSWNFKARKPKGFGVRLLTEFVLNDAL
Calls of active or inactive are those of the source.
Entries annotated with measured IC50

compound	IC50
CC(=O)N1CCC2(CC1)C(C#N)=C(N)Oc1[nH]nc(CSc3ccc(C)cc3)c12	21.1 µM (active)
O=C(CSc1nnc[nH]1)Nc1ccc2c(c1)CCC2	22.3 µM (active)
Cc1ccc(NC(=O)CSc2ncc(S(=O)(=O)c3ccccc3)c(O)n2)cc1C	4.56 µM (active)
Cc1cccc(NC(=O)CSc2nnc(-c3ccco3)c(-c3ccco3)n2)c1C	20.6 µM (active)

*Q* Name the recorded IC50 of the compound listed here: O=C(O)C1CCCCC1C(=O)Nc1ccc2c(c1)CCC2 (stereo not given)
*A* 9.16 µM (active)

###

The following are reported AC50 results, target or system Cytochrome P450 2D6 (Homo sapiens).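 Note: CYP2D6 member of a cytochrome P450 panel assay.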

Below are worked cases with known answers.
smiles	measurement target	AC50
Cc1nn(-c2nc3ccccc3[nH]2)c(N)c1-c1ccc(Cl)cc1	Cytochrome P450 2D6 (Homo sapiens)	12.6 µM (inconclusive)
Cc1cccc(NC(=O)CCSc2nc(C)cc(C)n2)c1	Cytochrome P450 2D6 (Homo sapiens)	22.4 µM (inconclusive)
Cc1ccc(-c2nnc(S)n2/N=C/c2cccn2C)cc1	Cytochrome P450 2D6 (Homo sapiens)	5.01 µM (inconclusive)
Cc1cnc(CNc2ncnc3ccc(-c4ccccc4C(F)(F)F)cc23)cn1	Cytochrome P450 2D6 (Homo sapiens)	25.1 µM (inconclusive)

*Q* Find the measured AC50 of "CCOc1c2ccc(C(=O)NCc3ccc(OC(F)(F)F)cc3)cc2nn1CC" with Cytochrome P450 2D6 (Homo sapiens) as test system.
Sequence (P10635 whole entry): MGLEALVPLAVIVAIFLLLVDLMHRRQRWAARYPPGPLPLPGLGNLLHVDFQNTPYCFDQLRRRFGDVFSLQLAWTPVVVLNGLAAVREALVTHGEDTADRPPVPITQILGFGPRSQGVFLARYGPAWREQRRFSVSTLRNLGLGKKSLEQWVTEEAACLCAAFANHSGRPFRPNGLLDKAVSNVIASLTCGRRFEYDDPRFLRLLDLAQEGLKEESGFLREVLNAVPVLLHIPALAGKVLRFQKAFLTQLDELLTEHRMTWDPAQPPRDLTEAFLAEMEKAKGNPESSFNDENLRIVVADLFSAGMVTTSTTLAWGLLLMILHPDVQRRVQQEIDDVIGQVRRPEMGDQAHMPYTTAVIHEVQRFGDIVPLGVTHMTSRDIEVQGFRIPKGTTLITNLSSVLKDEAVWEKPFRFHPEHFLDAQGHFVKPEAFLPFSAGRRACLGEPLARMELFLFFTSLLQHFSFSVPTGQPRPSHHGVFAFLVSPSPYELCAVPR
*A* 25.1 µM (inconclusive)

###

biological target: FAD-linked sulfhydryl oxidase ALR (Homo sapiens); experiment: inhibitors of human ALR sulfhydryl oxidase, dose response, biochemical, H2O2 detection, luminescence, cherry-pick (AID 493248)
Sequence (P55789 whole entry): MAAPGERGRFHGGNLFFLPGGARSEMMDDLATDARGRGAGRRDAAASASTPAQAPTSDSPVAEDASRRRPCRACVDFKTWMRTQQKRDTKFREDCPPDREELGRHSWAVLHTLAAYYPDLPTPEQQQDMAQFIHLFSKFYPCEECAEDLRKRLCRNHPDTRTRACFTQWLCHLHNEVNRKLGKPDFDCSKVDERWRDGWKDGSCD
Calls of active or inactive are those of the source.
Entries annotated with measured AC50

molecule	AC50
CC(C)(C)c1cc(-c2nnc(S)n2-c2ccccc2F)[nH]n1	2.1 µM (active)
CC1(C)Nc2ccccc2N(CC(=O)N2CCCCC2)C1=O	1.96 µM (active)
CC(=O)c1ccc(NC(=O)N2CCN(c3ccc(C)cc3)C(C)C2)cc1 (configuration not stated)	3.56 µM (active)
CN(C)c1ccc(/C=N/NS(=O)(=O)c2ccc(Br)cc2)cc1	33.5 µM (active)
COc1ccc(CC(=O)N2CCN(c3ccc(C4=NNC(=O)CC4C)cc3)CC2)cc1 (configuration not stated)	20.8 µM (active)
CC(C)c1ccc(NC(=O)Cc2c(C(=O)O)n(C)c3ccccc23)cc1	6.73 µM (active)

*Q* Name the recorded AC50 of the molecule listed here: "COc1ccc(CC(=O)Nc2ccccc2N2CCCC2)cc1OC"
*A* 12.6 µM (active)

*Q* Name the recorded AC50 of the molecule listed here: "Cc1nc2ccc(S(=O)(=O)NCC(=O)N(C)Cc3ccccc3)cc2s1"
*A* 1.05 µM (active)

*Q* Name the recorded AC50 of the molecule listed here: Cc1cc(C)cc(-n2ncc3c2CCCC3NC(=O)c2cc(C)n(C)n2)c1 (configuration not stated)
*A* 4.51 µM (active)

*Q* Name the recorded AC50 of the molecule listed here: CCN(CCNC(=O)C1CCCN(Cc2nc(-c3ccc(OC)cc3)oc2C)C1)c1ccccc1 (configuration not stated)
*A* 0.01 µM (active)

*Q* Name the recorded AC50 of the molecule listed here: "Cc1ccc(N/N=C2\CCS(=O)(=O)c3sccc32)cc1"
*A* 0.311 µM (active)

*Q* Name the recorded AC50 of the molecule listed here: "Cc1cc(N)n2ncc(-c3ccccc3)c2n1"
*A* 18.9 µM (active)
